# EXPERIMENTAL PROTOCOL: Human HepG2 cell viability assay in 384 well format
# Type: toxicity, cell-based
# Set-up: dose 125 nL, time 70.5 hour; concentration not given beside the values
# CONDITION NOTES: HepG2 cells, read-out: Inhibition
Provide the reported cytotoxicity at 70.5 h of each item.
Numbers only, in %.

Recorded results for 10 molecules are shown here.
CCN1CCCC12CCN(C(=O)c1ccsc1)CC2 ... -7.76
CCNc1nc(C)c(C(=O)N2CCC(C(O)Cc3ccccc3)CC2)s1 (configuration not stated) ... -14.6
Cc1nn(C)cc1C(C)Nc1ncc(C(N)=O)cc1Cl (configuration not stated) ... -5.7
CC(C(=O)N(Cc1ccccc1)CC(F)(F)F)S(C)(=O)=O (configuration not stated) ... -5.47
CCc1nc(CN2CCCN(c3nccs3)CC2)no1 ... 6.55
O=C(Nc1cccc(F)c1)C1=NOC2(CCNCC2)C1 ... -4.38
O=C([C@H]1COC[C@H]2CN(C3CCOCC3)C[C@H]21)N1CCCCO1 ... 4.24
CN(Cc1cccnc1)CC1CC12CCCC2 (configuration not stated) ... -5.63
CCc1nc(N)nc(NCCC(=O)NC2CCCCC2)c1C ... -3.68
COCc1cc(N2CCc3onc(-c4cccc(OC)c4)c3C2)ncn1 ... -5.12

Go through the list and state cytotoxicity at 70.5 h for each entry.
1. CNC(=O)CN([C@H]1C[C@H]2CCOC[C@H]2C1)S(=O)(=O)c1ccccc1
2. CCC(Nc1ncnc2sc(C(=O)O)c(C)c12)c1ccnn1C (configuration not stated)
3. CN(C)C(=O)N1CC[C@@H](O)[C@@H]1Cc1cnn(C)c1
4. COc1ccc(CNC(=O)N(C)CC(C)(C)O)cc1OC
5. COc1ccccc1OCCC(=O)NC1CCc2nc(C)cn2C1 (configuration not stated)

Result:
-5.55
-12.8
-1.6
-109
-3.16

Go through the list and state cytotoxicity at 70.5 h for each entry.
1. Cc1nsc(NC(=O)NC2CCCOC2)n1 (configuration not stated)
2. CC(=O)Nc1nc(C(=O)N2CCC(Nc3cccnn3)CC2)cs1

Result:
23
-2.92

###

# EXPERIMENTAL PROTOCOL: Human HepG2 cell viability assay in 384 well format
# Assay type: toxicity, cell-based
# Set-up: dose 125 nL, time 70.5 hour; concentration not given beside the values
# CONDITION NOTES: HepG2 cells, read-out: Inhibition
REPORTED ENDPOINT: cytotoxicity at 70.5 h (%)
Give bare numbers, in %.

Recorded results for 3 compounds are shown here.
Cc1ccc(C#N)c(N2CCC(c3nccn3Cc3cscn3)CC2)n1 ... -8.13
O=C(c1ccccn1)N1C[C@@H](OCc2cccnc2)[C@H]2OCCC[C@@H]21 ... 9.73
O=C(NS(=O)(=O)c1ccccc1Cl)c1cccc2c1OCCO2 ... -3.53

Go through the list and state cytotoxicity at 70.5 h for each entry.
1. COCCC(=O)N1CCCC2(CCN(c3ccccc3)C2=O)C1 (stereo not given)
2. CC(C)NC(=O)C1CN(C(=O)COc2ccccc2)CC12CCOCC2 (stereo not given)

Result:
[-11, -9.68]

Go through the list and state cytotoxicity at 70.5 h for each entry.
1. O=C(NCc1cccs1)[C@@H]1CC[C@@H]2[C@@H](CCN2CC2CCC2)O1
2. CCCn1ncc(C(=O)N2CCC(N3CCCCC3)CC2)c1C
3. Cn1cc(NC(=O)Nc2ccccn2)cc(Cl)c1=O
4. CS(=O)(=O)NC1CCN(C(=O)NCc2cc[nH]n2)CC1
5. O=C(CCN1CCOC(CNc2cccnn2)C1)NC1CCCCC1 (stereo not given)
6. Cc1nn(C)c(C)c1CC(=O)N1CCCC(n2ccnc2C)C1 (stereo not given)

Result:
[-17.4, -11.6, 9.47, -8.42, 11.1, -2.12]

Go through the list and state cytotoxicity at 70.5 h for each entry.
1. Cc1cc(C2CCCN2C(=O)COc2ccc(CC#N)cc2)no1 (stereo not given)
2. Cc1ccc(C(=O)NCCCNS(C)(=O)=O)cc1C
3. CN(C)C(=O)c1coc(COc2ccccc2)n1
4. Cc1n[nH]c(C)c1CN1CC[C@@H]2[C@@H](CCC(=O)N2CCc2c[nH]cn2)C1

Result:
1: -7.35; 2: -9.61; 3: 15.6; 4: 1.53

###

# EXPERIMENTAL PROTOCOL: Human HepG2 cell viability assay in 384 well format
# Format: toxicity, cell-based
# Set-up: dose 125 nL, time 70.5 hour; concentration not given beside the values
# CONDITION NOTES: HepG2 cells, read-out: Inhibition
REPORTED ENDPOINT: cytotoxicity at 70.5 h (%)
One number for each entry, in %.

CCC(=O)N1CCC(c2cncc(Oc3cccnc3)n2)CC1 ... -5.07
Cc1ccc(C(=O)N2CCSCC2)cc1N1CCNC1=O ... -5.73
N#Cc1ccc(C(=O)O)nc1/C=C/c1cccc(Br)c1 ... -4.7
Nc1nnnn1NCc1cccc(Cl)c1Cl ... 21.9
COCc1ccccc1CNc1nnc(C)c(C)c1C#N ... 21.2
CC(=O)Cc1c(C)nn(-c2cncc(C(N)=O)c2)c1C ... -9.56
Cc1cc(NC2CCN(CC3CCCO3)CC2)n2nc(C)c(C)c2n1 (stereo not drawn) ... 4.66
CN(C)S(=O)(=O)N1CCC(Cn2cccn2)CC1 ... -7.21

Go through the list and state cytotoxicity at 70.5 h for each entry.
1. COc1cccc(-c2n[nH]c3c2CN(C(=O)c2cc(C)n(C)n2)CC3)c1
2. Cc1nc(CC(=O)N2CCN(CCOc3ccccc3)CC2)cs1
3. Cn1cc(CN2CCCC3(CCN(C(=O)c4ccccn4)C3)C2)cn1 (stereo not drawn)
4. COCCn1c(-c2cccc(OC)c2)cnc1NC(=O)NC(C)C
5. CCC[C@H]1CN(S(=O)(=O)c2ccc(Cl)cc2)C[C@@H]1NC(C)=O

Result:
-7.15
-10.1
-12
-2.89
22.5

###

# EXPERIMENTAL PROTOCOL: Human HepG2 cell viability assay in 384 well format
# Format: toxicity, cell-based
# Design: dose 125 nL, time 70.5 hour; concentration not given beside the values
# CONDITION NOTES: HepG2 cells, read-out: Inhibition
REPORTED ENDPOINT: cytotoxicity at 70.5 h (%)
Answers are plain numbers, in %.

Recorded results for 5 compounds are shown here.
CCN1CC2(CC1=O)CN(Cc1cnn(C)c1)CCN(C(C)=O)C2 (stereo not drawn) ... -0.943
CCOC(=O)c1cc2c(=O)[nH]c(=O)n(CCc3ccccc3)c2nc1C ... -7.68
CC(C)CN(CC(F)(F)F)S(=O)(=O)c1cc(C(N)=O)n(C)c1 ... 1.58
CN(C)C(=O)[C@@H]1C[C@@H]2CCN(Cc3ccc4c(c3)OCO4)C[C@@H]2O1 ... 1.53
CNC(=O)c1ccc(-c2ccc(CNC(=O)COC)cc2)nc1C ... -10.8

Go through the list and state cytotoxicity at 70.5 h for each entry.
1. Cc1cccnc1CN1CCOC(Cc2cccc3ccccc23)C1 (stereo not drawn)
2. C1CN(c2nc(C3CC3)ns2)CCO1
3. Cc1oc(C)c(C(=O)NCc2cccnc2N(C)C)c1C
4. CC(CN1CCOCC1)NC(=O)N1CCCC1 (stereo not drawn)
5. CS(=O)(=O)CC(=O)NCC1OCCc2cn(CC3CC3)nc21 (stereo not drawn)
6. O=C(c1ccccn1)N1CCC2(CC1)COC(COCC1CC1)C2 (stereo not drawn)

Result:
1. -6.62
2. -5.18
3. -12.5
4. -3.6
5. -1.93
6. -8.98

Go through the list and state cytotoxicity at 70.5 h for each entry.
1. O=C(c1cnc(-c2ccco2)s1)N1CCCCC1Cn1cccn1 (stereo not drawn)
2. CN1CCc2ncc(CNC(=O)c3cccn3C)n2CC1

Result:
[-9.96, -7.23]

Go through the list and state cytotoxicity at 70.5 h for each entry.
1. CCn1cc(Br)c(C(=O)NCc2ccccc2)n1
2. O=C(c1ncn2c1CNS(=O)(=O)c1ccccc1-2)N1CCCCCC1
3. CN1C(=O)[C@H]2CC[C@@H]1CN(C(=O)Nc1cccc3ccccc13)C2
4. CC(C)c1ccccc1OCCNC(=O)N1CCC(CC(N)=O)CC1
5. CN1CCOC[C@H]1c1nc(C(C)(C)C)c[nH]1

Result:
1.89
0.0876
-6.28
-4.04
11.4

Go through the list and state cytotoxicity at 70.5 h for each entry.
1. CN1CCC2(CCCN(C(=O)c3cncn3C)C2)CC1
2. CCc1nc(CN2CCCC(NCc3cnc(C)s3)C2)no1 (stereo not drawn)
3. CCc1nc(CN(C(C)=O)C2CCN(CCc3ccccn3)C2)no1 (stereo not drawn)
4. CN(CC1CCCCO1)C(=O)c1ccnc(OC2CCC2)c1 (stereo not drawn)

Result:
[-7.82, 22.5, -11.5, -5.26]
